testTarget: POU2 (OCT2 POU domain) (human, UniProt P09086 175-386)
Sequence: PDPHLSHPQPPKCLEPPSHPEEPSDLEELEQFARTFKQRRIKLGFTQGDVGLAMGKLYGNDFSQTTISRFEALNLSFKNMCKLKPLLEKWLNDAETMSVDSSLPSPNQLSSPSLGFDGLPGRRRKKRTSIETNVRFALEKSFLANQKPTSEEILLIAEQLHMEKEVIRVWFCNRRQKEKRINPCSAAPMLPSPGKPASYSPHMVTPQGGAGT
measurementNotes: EMSA-SELEX-seq; no BOB1; 20 mM Tris-HCl pH 7.6, 140 mM NaCl, 10% glycerol, 0.5 mM EDTA, 0.05% Triton X-100, 0.1 mg/mL BSA, 0.1 mg/mL poly(dI-dC), 5 mM DTT, room temperature, 20 min; high values mean tight binding
measurementConditions: protein: recombinant; dsDNA, one strand shown
Entries and their measured binding signal follow.
measureName: binding signal

- primarySequence: "AGATCAAC"
  measureName: "binding signal"
  result: "0.0207 % of ANNNNAAN 8-mers"
- primarySequence: "AAAACAAT"
  measureName: "binding signal"
  result: "0.0604 % of ANNNNAAN 8-mers"
- primarySequence: "AGCTAAAA"
  measureName: "binding signal"
  result: "0.038 % of ANNNNAAN 8-mers"
- primarySequence: "AGTAAAAA"
  measureName: "binding signal"
  result: "0.0679 % of ANNNNAAN 8-mers"
- primarySequence: "AGTTTAAG"
  measureName: "binding signal"
  result: "0.0656 % of ANNNNAAN 8-mers"
- primarySequence: "AAGTAAAA"
  measureName: "binding signal"
  result: "0.0967 % of ANNNNAAN 8-mers"
- primarySequence: "ATACAAAG"
  measureName: "binding signal"
  result: "0.0938 % of ANNNNAAN 8-mers"
- primarySequence: "AGGGTAAA"
  measureName: "binding signal"
  result: "0.0857 % of ANNNNAAN 8-mers"
- primarySequence: "AGACAAAC"
  measureName: "binding signal"
  result: "0.0265 % of ANNNNAAN 8-mers"
- primarySequence: "ATATGAAT"
  measureName: "binding signal"
  result: "0.316 % of ANNNNAAN 8-mers"
- primarySequence: "ATGTCAAG"
  measureName: "binding signal"
  result: "0.0535 % of ANNNNAAN 8-mers"
- primarySequence: "AACGGAAG"
  measureName: "binding signal"
  result: "0.0259 % of ANNNNAAN 8-mers"
- primarySequence: "AGCGCAAT"
  measureName: "binding signal"
  result: "0.0368 % of ANNNNAAN 8-mers"
- primarySequence: "AGGTCAAC"
  measureName: "binding signal"
  result: "0.0288 % of ANNNNAAN 8-mers"
- primarySequence: "AACATAAG"
  measureName: "binding signal"
  result: "0.0731 % of ANNNNAAN 8-mers"
- primarySequence: "ATGACAAT"
  measureName: "binding signal"
  result: "0.0737 % of ANNNNAAN 8-mers"
- primarySequence: "AATTTAAT"
  measureName: "binding signal"
  result: "0.333 % of ANNNNAAN 8-mers"
- primarySequence: "AGCTTAAG"
  measureName: "binding signal"
  result: "0.0391 % of ANNNNAAN 8-mers"
- primarySequence: "ATTAAAAA"
  measureName: "binding signal"
  result: "0.219 % of ANNNNAAN 8-mers"
- primarySequence: "ACACGAAG"
  measureName: "binding signal"
  result: "0.0196 % of ANNNNAAN 8-mers"
- primarySequence: "AGTAGAAG"
  measureName: "binding signal"
  result: "0.0391 % of ANNNNAAN 8-mers"
- primarySequence: "ATCGGAAC"
  measureName: "binding signal"
  result: "0.0242 % of ANNNNAAN 8-mers"
- primarySequence: "AGCTCAAT"
  measureName: "binding signal"
  result: "0.0316 % of ANNNNAAN 8-mers"
- primarySequence: "AGCAGAAG"
  measureName: "binding signal"
  result: "0.0207 % of ANNNNAAN 8-mers"
- primarySequence: "ATACTAAG"
  measureName: "binding signal"
  result: "0.0518 % of ANNNNAAN 8-mers"
- primarySequence: "ATTGAAAA"
  measureName: "binding signal"
  result: "0.076 % of ANNNNAAN 8-mers"
- primarySequence: "ATTTGAAA"
  measureName: "binding signal"
  result: "0.0995 % of ANNNNAAN 8-mers"
- primarySequence: "AACTCAAC"
  measureName: "binding signal"
  result: "0.0288 % of ANNNNAAN 8-mers"
- primarySequence: "ACGGCAAC"
  measureName: "binding signal"
  result: "0.0109 % of ANNNNAAN 8-mers"
- primarySequence: "AACGCAAG"
  measureName: "binding signal"
  result: "0.0219 % of ANNNNAAN 8-mers"
- primarySequence: "ATAGAAAC"
  measureName: "binding signal"
  result: "0.0455 % of ANNNNAAN 8-mers"
- primarySequence: "ACAAAAAG"
  measureName: "binding signal"
  result: "0.0489 % of ANNNNAAN 8-mers"
- primarySequence: "AGATAAAT"
  measureName: "binding signal"
  result: "0.0886 % of ANNNNAAN 8-mers"
- primarySequence: "AATCTAAG"
  measureName: "binding signal"
  result: "0.0587 % of ANNNNAAN 8-mers"
- primarySequence: "ATCTTAAT"
  measureName: "binding signal"
  result: "0.176 % of ANNNNAAN 8-mers"
- primarySequence: "AATGCAAA"
  measureName: "binding signal"
  result: "1.1 % of ANNNNAAN 8-mers"
- primarySequence: "ATTCGAAT"
  measureName: "binding signal"
  result: "0.137 % of ANNNNAAN 8-mers"
- primarySequence: "ACCGCAAT"
  measureName: "binding signal"
  result: "0.019 % of ANNNNAAN 8-mers"
- primarySequence: "AAACAAAA"
  measureName: "binding signal"
  result: "0.115 % of ANNNNAAN 8-mers"
- primarySequence: "ACCGAAAT"
  measureName: "binding signal"
  result: "0.0426 % of ANNNNAAN 8-mers"
- primarySequence: "ATTTCAAA"
  measureName: "binding signal"
  result: "0.0852 % of ANNNNAAN 8-mers"
- primarySequence: "ACCATAAA"
  measureName: "binding signal"
  result: "0.0662 % of ANNNNAAN 8-mers"
- primarySequence: "AAAGGAAA"
  measureName: "binding signal"
  result: "0.0903 % of ANNNNAAN 8-mers"
- primarySequence: "ACGCTAAG"
  measureName: "binding signal"
  result: "0.0167 % of ANNNNAAN 8-mers"
- primarySequence: "ACGAAAAA"
  measureName: "binding signal"
  result: "0.0409 % of ANNNNAAN 8-mers"
- primarySequence: "ATTTGAAT"
  measureName: "binding signal"
  result: "1.5 % of ANNNNAAN 8-mers"
- primarySequence: "ATAATAAC"
  measureName: "binding signal"
  result: "0.101 % of ANNNNAAN 8-mers"
- primarySequence: "ACAACAAC"
  measureName: "binding signal"
  result: "0.0104 % of ANNNNAAN 8-mers"
- primarySequence: "ATGATAAC"
  measureName: "binding signal"
  result: "0.0489 % of ANNNNAAN 8-mers"
- primarySequence: "AAAGTAAT"
  measureName: "binding signal"
  result: "0.14 % of ANNNNAAN 8-mers"
- primarySequence: "AAGCCAAG"
  measureName: "binding signal"
  result: "0.0184 % of ANNNNAAN 8-mers"
- primarySequence: "AGGATAAC"
  measureName: "binding signal"
  result: "0.0437 % of ANNNNAAN 8-mers"
- primarySequence: "ACACGAAA"
  measureName: "binding signal"
  result: "0.027 % of ANNNNAAN 8-mers"
- primarySequence: "AAATTAAT"
  measureName: "binding signal"
  result: "0.478 % of ANNNNAAN 8-mers"
- primarySequence: "ATCCTAAG"
  measureName: "binding signal"
  result: "0.0299 % of ANNNNAAN 8-mers"
- primarySequence: "ATGAGAAG"
  measureName: "binding signal"
  result: "0.088 % of ANNNNAAN 8-mers"
- primarySequence: "AGTTTAAC"
  measureName: "binding signal"
  result: "0.0449 % of ANNNNAAN 8-mers"
- primarySequence: "ACCAAAAC"
  measureName: "binding signal"
  result: "0.0242 % of ANNNNAAN 8-mers"
- primarySequence: "AACTAAAG"
  measureName: "binding signal"
  result: "0.0311 % of ANNNNAAN 8-mers"
- primarySequence: "ACGCGAAG"
  measureName: "binding signal"
  result: "0.0121 % of ANNNNAAN 8-mers"
- primarySequence: "ACGCCAAA"
  measureName: "binding signal"
  result: "0.0219 % of ANNNNAAN 8-mers"
- primarySequence: "AAGGCAAT"
  measureName: "binding signal"
  result: "0.0489 % of ANNNNAAN 8-mers"
- primarySequence: "AAATGAAC"
  measureName: "binding signal"
  result: "0.102 % of ANNNNAAN 8-mers"
- primarySequence: "ATAACAAT"
  measureName: "binding signal"
  result: "0.088 % of ANNNNAAN 8-mers"
- primarySequence: "ACTTGAAT"
  measureName: "binding signal"
  result: "0.0961 % of ANNNNAAN 8-mers"
- primarySequence: "AGACAAAT"
  measureName: "binding signal"
  result: "0.0748 % of ANNNNAAN 8-mers"
- primarySequence: "AACCCAAT"
  measureName: "binding signal"
  result: "0.019 % of ANNNNAAN 8-mers"
- primarySequence: "AGCGGAAT"
  measureName: "binding signal"
  result: "0.0725 % of ANNNNAAN 8-mers"
- primarySequence: "AGCCCAAT"
  measureName: "binding signal"
  result: "0.019 % of ANNNNAAN 8-mers"
- primarySequence: "ACCTCAAA"
  measureName: "binding signal"
  result: "0.0155 % of ANNNNAAN 8-mers"
- primarySequence: "ATTATAAT"
  measureName: "binding signal"
  result: "1.04 % of ANNNNAAN 8-mers"
- primarySequence: "AGAACAAG"
  measureName: "binding signal"
  result: "0.0334 % of ANNNNAAN 8-mers"
- primarySequence: "AGCTTAAA"
  measureName: "binding signal"
  result: "0.0437 % of ANNNNAAN 8-mers"
- primarySequence: "AAATGAAT"
  measureName: "binding signal"
  result: "0.273 % of ANNNNAAN 8-mers"
- primarySequence: "ACCCCAAA"
  measureName: "binding signal"
  result: "0.0104 % of ANNNNAAN 8-mers"
- primarySequence: "ACGTCAAA"
  measureName: "binding signal"
  result: "0.0178 % of ANNNNAAN 8-mers"
- primarySequence: "ACCGTAAT"
  measureName: "binding signal"
  result: "0.0529 % of ANNNNAAN 8-mers"
- primarySequence: "ACCAGAAA"
  measureName: "binding signal"
  result: "0.0242 % of ANNNNAAN 8-mers"
- primarySequence: "AATACAAT"
  measureName: "binding signal"
  result: "0.107 % of ANNNNAAN 8-mers"
- primarySequence: "AGATCAAT"
  measureName: "binding signal"
  result: "0.0432 % of ANNNNAAN 8-mers"
- primarySequence: "AAAGAAAA"
  measureName: "binding signal"
  result: "0.0892 % of ANNNNAAN 8-mers"
- primarySequence: "ACACTAAA"
  measureName: "binding signal"
  result: "0.0293 % of ANNNNAAN 8-mers"
- primarySequence: "AAAGCAAC"
  measureName: "binding signal"
  result: "0.0259 % of ANNNNAAN 8-mers"
- primarySequence: "AATATAAA"
  measureName: "binding signal"
  result: "0.178 % of ANNNNAAN 8-mers"
- primarySequence: "ACATAAAC"
  measureName: "binding signal"
  result: "0.106 % of ANNNNAAN 8-mers"
- primarySequence: "ATTTGAAG"
  measureName: "binding signal"
  result: "0.0604 % of ANNNNAAN 8-mers"
- primarySequence: "ACATCAAC"
  measureName: "binding signal"
  result: "0.0253 % of ANNNNAAN 8-mers"
- primarySequence: "ACGATAAT"
  measureName: "binding signal"
  result: "0.123 % of ANNNNAAN 8-mers"
- primarySequence: "ATTGAAAC"
  measureName: "binding signal"
  result: "0.0322 % of ANNNNAAN 8-mers"
- primarySequence: "ATATGAAC"
  measureName: "binding signal"
  result: "0.0495 % of ANNNNAAN 8-mers"
- primarySequence: "ACGAAAAT"
  measureName: "binding signal"
  result: "0.0949 % of ANNNNAAN 8-mers"
